# TESTED_TARGET: FLT3 (Homo sapiens, UniProt P36888)
# Sequence (P36888 27-993): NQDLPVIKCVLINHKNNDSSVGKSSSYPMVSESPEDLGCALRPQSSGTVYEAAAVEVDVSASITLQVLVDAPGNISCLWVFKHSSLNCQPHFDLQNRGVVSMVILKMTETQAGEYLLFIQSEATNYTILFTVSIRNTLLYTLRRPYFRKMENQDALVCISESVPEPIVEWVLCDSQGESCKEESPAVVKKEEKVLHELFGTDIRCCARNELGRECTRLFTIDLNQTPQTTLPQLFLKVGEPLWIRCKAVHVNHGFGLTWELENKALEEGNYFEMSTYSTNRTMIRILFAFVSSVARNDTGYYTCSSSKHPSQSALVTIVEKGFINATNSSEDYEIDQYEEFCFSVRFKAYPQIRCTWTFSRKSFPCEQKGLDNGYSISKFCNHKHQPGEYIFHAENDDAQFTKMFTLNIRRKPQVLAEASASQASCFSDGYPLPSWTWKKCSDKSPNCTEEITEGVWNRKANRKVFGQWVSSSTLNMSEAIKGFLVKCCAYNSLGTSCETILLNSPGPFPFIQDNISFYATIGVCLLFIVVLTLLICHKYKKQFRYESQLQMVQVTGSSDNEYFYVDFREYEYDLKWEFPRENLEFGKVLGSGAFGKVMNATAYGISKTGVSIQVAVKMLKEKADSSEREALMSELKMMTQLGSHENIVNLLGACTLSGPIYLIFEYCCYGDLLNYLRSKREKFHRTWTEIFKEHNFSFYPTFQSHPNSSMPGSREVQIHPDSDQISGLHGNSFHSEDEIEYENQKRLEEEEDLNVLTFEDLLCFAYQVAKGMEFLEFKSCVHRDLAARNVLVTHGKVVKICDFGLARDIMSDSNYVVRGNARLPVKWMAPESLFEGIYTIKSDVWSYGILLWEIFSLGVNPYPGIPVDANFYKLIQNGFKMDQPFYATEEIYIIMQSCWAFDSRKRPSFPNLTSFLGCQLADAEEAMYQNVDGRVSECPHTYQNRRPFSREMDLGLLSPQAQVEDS
# ASSAY_METHOD_TEXT: KINOMEscan active-site competitive binding assay
# SETUP_CONDITIONS: slash = two separate measurements
EXPERIMENTAL_READOUT: pKd
Reminder that pKd is minus the log10 of a molar concentration.

Sure, the documented pKd for NC(=O)c1cc(Oc2ccc(NC(=O)Nc3ccc(Cl)c(C(F)(F)F)c3)c(F)c2)cc[n+]1[O-] [M‐5] is 8.59

====

# TESTED_TARGET: RAFs
# ASSAY_METHOD_TEXT: KINOMEscan active-site competitive binding assay
# SETUP_CONDITIONS: range among family members
pKd: −log10 of the molar value.
EXPERIMENTAL_READOUT: pKd

Sure, the documented pKd for CNC(=O)c1cc(Oc2ccc(NC(=O)Nc3ccc(Cl)c(C(F)(F)F)c3)c(F)c2)cc[n+]1[O-] is 6.89 to 7.62

====

# TESTED_TARGET: MAP4K4 (Homo sapiens)
# Sequence (O95819 whole entry): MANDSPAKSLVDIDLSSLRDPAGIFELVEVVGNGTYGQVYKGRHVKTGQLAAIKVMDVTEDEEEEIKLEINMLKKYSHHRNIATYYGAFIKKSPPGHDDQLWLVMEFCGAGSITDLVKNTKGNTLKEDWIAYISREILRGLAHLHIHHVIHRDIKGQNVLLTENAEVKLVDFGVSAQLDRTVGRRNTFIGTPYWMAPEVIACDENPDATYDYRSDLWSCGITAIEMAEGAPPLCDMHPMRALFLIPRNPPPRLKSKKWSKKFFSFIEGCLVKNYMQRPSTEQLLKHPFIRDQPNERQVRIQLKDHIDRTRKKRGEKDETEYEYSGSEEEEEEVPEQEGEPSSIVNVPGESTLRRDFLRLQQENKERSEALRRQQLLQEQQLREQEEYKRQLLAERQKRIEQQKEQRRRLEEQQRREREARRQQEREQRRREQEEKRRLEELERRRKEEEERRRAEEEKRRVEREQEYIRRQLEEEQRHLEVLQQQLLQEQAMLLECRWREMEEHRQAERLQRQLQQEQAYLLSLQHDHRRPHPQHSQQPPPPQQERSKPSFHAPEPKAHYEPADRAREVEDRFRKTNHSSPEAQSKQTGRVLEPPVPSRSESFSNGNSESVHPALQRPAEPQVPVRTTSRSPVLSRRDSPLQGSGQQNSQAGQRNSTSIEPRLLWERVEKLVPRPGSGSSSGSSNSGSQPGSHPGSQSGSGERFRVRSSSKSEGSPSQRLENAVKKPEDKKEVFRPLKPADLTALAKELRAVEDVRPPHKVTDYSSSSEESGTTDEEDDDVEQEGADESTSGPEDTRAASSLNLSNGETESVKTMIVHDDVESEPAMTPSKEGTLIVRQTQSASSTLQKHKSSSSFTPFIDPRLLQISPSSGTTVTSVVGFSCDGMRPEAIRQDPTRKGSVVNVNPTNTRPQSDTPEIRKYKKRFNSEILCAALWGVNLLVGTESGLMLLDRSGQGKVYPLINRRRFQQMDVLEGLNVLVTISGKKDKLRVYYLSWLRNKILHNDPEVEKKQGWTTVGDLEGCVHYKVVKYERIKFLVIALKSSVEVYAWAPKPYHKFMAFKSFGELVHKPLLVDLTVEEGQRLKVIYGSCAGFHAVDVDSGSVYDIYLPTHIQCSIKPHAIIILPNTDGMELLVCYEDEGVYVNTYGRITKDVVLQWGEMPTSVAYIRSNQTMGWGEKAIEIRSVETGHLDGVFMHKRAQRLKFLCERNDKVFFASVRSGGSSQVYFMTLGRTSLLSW
# ASSAY_METHOD_TEXT: KINOMEscan active-site competitive binding assay
# SETUP_CONDITIONS: slash = two separate measurements
Listed compounds paired with reported Kd
Reply with just the number (in nM).

>  <STRUCTURE_SMILES>
CNC(=O)c1cc(Oc2ccc(NC(=O)Nc3ccc(Cl)c(C(F)(F)F)c3)c(F)c2)cc[n+]1[O-]

>  <Kd, nM>
42

$$$$

Moving on to another compound below.
Sure, the documented Kd for NC(=O)c1cc(Oc2ccc(NC(=O)Nc3ccc(Cl)c(C(F)(F)F)c3)c(F)c2)cc[n+]1[O-] is 89

====

# ASSAY_METHOD_TEXT: Plasma protein binding in vitro (Transil), mouse plasma
# Format: in vitro ADME
# SETUP_CONDITIONS: male, CD-1, mouse, plasma, mouse (CD‐1); arithmetic mean ± SD
EXPERIMENTAL_READOUT: fraction unbound

Sure, the documented fraction unbound for CNC(=O)c1cc(Oc2ccc(NC(=O)Nc3ccc(Cl)c(C(F)(F)F)c3)c(F)c2)ccn1 [Regorafenib, reference compound] is ~0.006

====

# TESTED_TARGET: HIPK4 (Homo sapiens, UniProt Q8NE63)
# Sequence (Q8NE63 whole entry): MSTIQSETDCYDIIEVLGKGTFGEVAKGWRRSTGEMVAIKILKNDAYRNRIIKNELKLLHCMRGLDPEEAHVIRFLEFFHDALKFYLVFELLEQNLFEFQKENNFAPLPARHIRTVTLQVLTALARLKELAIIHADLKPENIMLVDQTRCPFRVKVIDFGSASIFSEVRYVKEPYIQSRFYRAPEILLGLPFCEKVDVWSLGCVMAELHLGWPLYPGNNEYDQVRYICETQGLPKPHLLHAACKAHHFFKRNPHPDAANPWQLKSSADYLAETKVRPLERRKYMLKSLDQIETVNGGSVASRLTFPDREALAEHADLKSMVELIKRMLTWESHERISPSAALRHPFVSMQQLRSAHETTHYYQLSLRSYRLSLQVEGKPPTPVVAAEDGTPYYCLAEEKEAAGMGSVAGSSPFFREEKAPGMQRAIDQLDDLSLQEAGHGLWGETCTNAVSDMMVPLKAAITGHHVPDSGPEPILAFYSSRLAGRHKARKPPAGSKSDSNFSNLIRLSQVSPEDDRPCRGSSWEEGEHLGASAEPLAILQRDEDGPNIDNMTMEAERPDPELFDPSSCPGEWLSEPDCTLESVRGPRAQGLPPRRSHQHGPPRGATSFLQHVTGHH
# ASSAY_METHOD_TEXT: KINOMEscan active-site competitive binding assay
# SETUP_CONDITIONS: slash = two separate measurements
Listed compounds paired with reported Kd
Reply with just the number (in nM).

>  <STRUCTURE_SMILES>
NC(=O)c1cc(Oc2ccc(NC(=O)Nc3ccc(Cl)c(C(F)(F)F)c3)c(F)c2)cc[n+]1[O-]

>  <UNIT>
nM

>  <Kd>
26

$$$$

Moving on to another compound below.
Sure, the documented Kd for CNC(=O)c1cc(Oc2ccc(NC(=O)Nc3ccc(Cl)c(C(F)(F)F)c3)c(F)c2)cc[n+]1[O-] is 15
